Hello, the source for this data is patent US20240368135A1, in case you need it.

In this section, each of the molecules is paired with its reported IC50.
target: human NaV 1.8 (Homo sapiens, UniProt Q9Y5Y9); assay: E-VIPR assay detecting and measuring NaV inhibition properties; assay type: cell-based; conditions: HEK cells expressing truncated human NaV 1.8; no human serum; read-out: IC50 in the E-VIPR Assay
Sequence (Q9Y5Y9 126-399 limits assumed): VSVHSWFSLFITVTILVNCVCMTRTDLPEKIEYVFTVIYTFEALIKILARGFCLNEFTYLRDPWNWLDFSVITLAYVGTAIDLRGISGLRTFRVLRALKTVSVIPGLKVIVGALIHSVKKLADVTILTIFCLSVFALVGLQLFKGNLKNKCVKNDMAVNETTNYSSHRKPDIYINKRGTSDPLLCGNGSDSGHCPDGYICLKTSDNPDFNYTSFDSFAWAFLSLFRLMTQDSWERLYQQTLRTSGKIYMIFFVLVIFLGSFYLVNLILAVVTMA
Sequence (Q9Y5Y9 660-890 limits assumed): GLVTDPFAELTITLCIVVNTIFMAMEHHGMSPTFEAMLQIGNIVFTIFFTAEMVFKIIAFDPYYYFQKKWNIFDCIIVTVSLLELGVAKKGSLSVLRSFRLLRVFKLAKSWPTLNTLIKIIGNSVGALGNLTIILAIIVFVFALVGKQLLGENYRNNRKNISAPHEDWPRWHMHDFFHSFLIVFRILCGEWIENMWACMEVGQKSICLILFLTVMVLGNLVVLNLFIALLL
Sequence (Q9Y5Y9 1148-1722 limits assumed): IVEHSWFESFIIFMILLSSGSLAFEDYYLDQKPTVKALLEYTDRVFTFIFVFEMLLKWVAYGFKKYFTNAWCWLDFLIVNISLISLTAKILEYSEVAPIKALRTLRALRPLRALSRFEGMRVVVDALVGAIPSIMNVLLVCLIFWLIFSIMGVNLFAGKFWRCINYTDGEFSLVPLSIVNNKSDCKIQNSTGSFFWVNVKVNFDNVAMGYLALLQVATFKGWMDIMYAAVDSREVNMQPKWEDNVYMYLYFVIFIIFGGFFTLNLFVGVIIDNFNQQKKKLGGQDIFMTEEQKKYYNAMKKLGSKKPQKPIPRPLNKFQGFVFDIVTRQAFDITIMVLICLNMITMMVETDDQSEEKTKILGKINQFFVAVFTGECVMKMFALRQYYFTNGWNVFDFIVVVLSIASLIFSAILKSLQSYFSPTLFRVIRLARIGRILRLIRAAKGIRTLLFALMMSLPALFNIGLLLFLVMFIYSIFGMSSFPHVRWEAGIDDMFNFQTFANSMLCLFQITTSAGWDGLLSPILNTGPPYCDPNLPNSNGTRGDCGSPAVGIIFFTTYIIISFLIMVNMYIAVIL

Answered cases to consult:
Exercise: Identify the reported IC50 for the following entry. COc1c([C@H]2[C@H](C(=O)Nc3cc4n(n3)CCOC4)O[C@@](C)(C(F)(F)F)[C@H]2C)ccc(F)c1F
Solution: ≥ 1 µM

Exercise: Identify the reported IC50 for the following entry. CN=S(C)(=O)c1cc(NC(=O)C2OC(C)(C(F)(F)F)C(C)C2c2ccc(F)c(C)c2OC)ccn1 (stereo not drawn)
Solution: < 0.01 µM

More entries:
Exercise: Identify the reported IC50 for the following entry. COc1c(C2C(C(=O)Nc3ccn4nnnc4c3)OC(C)(C(F)(F)F)C2C)ccc(F)c1C (single isomer, unassigned) [Compound 133]
Solution: 0.1 to 1 µM

Exercise: Identify the reported IC50 for the following entry. Cc1nocc1NC(=O)[C@@H]1O[C@@](C)(C(F)(F)F)[C@@H](C)[C@H]1c1ccc(F)c(F)c1OCCN1CC2(COC2)C1
Solution: 0.01 to 0.1 µM

Exercise: Identify the reported IC50 for the following entry. C[C@H]1[C@@H](c2ccc(F)c(F)c2OCC2COC2)[C@H](C(=O)Nc2cccnc2)O[C@@]1(C)C(F)(F)F
Solution: 0.01 to 0.1 µM

Exercise: Identify the reported IC50 for the following entry. Cc1cc(NC(=O)[C@@H]2O[C@@](C)(C(F)(F)F)[C@@H](C)[C@H]2c2ccc(F)c(F)c2OCCO)ccn1
Solution: 0.01 to 0.1 µM

###

In this section, each of the molecules is paired with its reported IC50.
target: human NaV 1.8 (Homo sapiens); test: E-VIPR assay detecting and measuring NaV inhibition properties; assay type: cell-based; conditions: HEK cells expressing truncated human NaV 1.8; no human serum; read-out: IC50 in the E-VIPR Assay

Exercise: Under human NaV 1.8 (Homo sapiens), report IC50 for COc1c([C@H]2[C@H](C(=O)Nc3ccc(C#CCO)nc3)O[C@@](C)(C(F)(F)F)[C@H]2C)ccc(F)c1F
Solution: 10 to 100 nM

Exercise: Under human NaV 1.8 (Homo sapiens), report IC50 for COCCOc1c([C@H]2[C@H](C(=O)Nc3cnn(CC(C)(C)O)c3)O[C@@](C)(C(F)(F)F)[C@H]2C)ccc(F)c1F
Solution: 100 to 1000 nM

# input for lookup
Exercise: Under human NaV 1.8 (Homo sapiens), report IC50 for COCC(c1cc(NC(=O)[C@@H]2O[C@@](C)(C(F)(F)F)[C@@H](C)[C@H]2c2ccc(F)c(F)c2OC)ccn1)N(C)C (single isomer, unassigned)
Solution: < 10 nM

###

biological target: human NaV 1.8 (Homo sapiens); experiment: E-VIPR assay detecting and measuring NaV inhibition properties; format: cell-based; conditions: HEK cells expressing truncated human NaV 1.8; no human serum; read-out: IC50 in the E-VIPR Assay
Observable: IC50

Answered cases to consult:
Exercise: Identify the reported IC50 for the following entry. COCC(C)(N)c1cc(NC(=O)[C@@H]2O[C@@](C)(C(F)(F)F)[C@@H](C)[C@H]2c2ccc(F)c(F)c2OC)c(F)cn1 (single isomer, unassigned) [Compound 354]
Solution: < 10 nM

Exercise: Identify the reported IC50 for the following entry. COc1c([C@H]2[C@H](C(=O)Nc3cnc4n3CCCC4)O[C@@](C)(C(F)(F)F)[C@H]2C)ccc(F)c1F [Compound 317]
Solution: 100 to 1000 nM

Exercise: Identify the reported IC50 for the following entry. COc1c([C@H]2[C@H](C(=O)Nc3ccnc(CN4CCC(F)(F)C4)c3)O[C@@](C)(C(F)(F)F)[C@H]2C)ccc(F)c1F [Compound 182]
Solution: 10 to 100 nM

Exercise: Identify the reported IC50 for the following entry. COc1c([C@H]2[C@H](C(=O)Nc3ccnc(N4C(=O)CNC[C@H]4C)c3)O[C@@](C)(C(F)(F)F)[C@H]2C)ccc(F)c1F [Compound 477]
Solution: 10 to 100 nM

Exercise: Identify the reported IC50 for the following entry. CNC1CCN(c2cc(NC(=O)[C@@H]3O[C@@](C)(C(F)(F)F)[C@@H](C)[C@H]3c3ccc(F)c(F)c3OC)ccn2)C1=O (single isomer, unassigned) [Compound 501]
Solution: 10 to 100 nM

More entries:
Exercise: Identify the reported IC50 for the following entry. COCc1cc(NC(=O)[C@@H]2O[C@@](C)(C(F)(F)F)[C@@H](C)[C@H]2c2ccc(F)c(F)c2OCCO)ccn1 [Compound 564]
Solution: < 10 nM
